MIC, Entero Cloac. IM 11, per-entry values.

| compound | MIC, µg/mL |
| --- | --- |
| CC(=O)N[C@H](C)C(=O)Nc1ccc(-c2ccc(C(=O)N[C@@H](C(=O)NC3C(=O)N4C(C(=O)O)=C(CSc5nnnn5C)CSC34)c3ccc(O)cc3)c(=O)[nH]2)cc1 (some centres unmarked) | 1.6 |
| CC(=O)N[C@@H](CCC(N)=O)C(=O)Nc1ccc(-c2ccc(C(=O)N[C@@H](C(=O)NC3C(=O)N4C(C(=O)O)=C(CSc5nnnn5CC(=O)O)CSC34)c3ccccc3)c(=O)[nH]2)cc1 (some centres unmarked) | 6.3 |
| CC(=O)NCCCC[C@H](NC(C)=O)C(=O)Nc1ccc(-c2ccc(C(=O)N[C@@H](C(=O)NC3C(=O)N4C(C(=O)O)=C(COC(C)=O)CSC34)c3ccccc3)c(=O)[nH]2)cc1 (some centres unmarked) | 12.5 |
| CC(=O)N1CC(O)C[C@H]1C(=O)Nc1ccc(-c2ccc(C(=O)N[C@@H](C(=O)NC3C(=O)N4C(C(=O)O)=C(CSc5nnnn5CC(=O)O)CSC34)c3ccccc3)c(=O)[nH]2)cc1 (some centres unmarked) | 3.1 |
| CC(=O)OCC1=C(C(=O)O)N2C(=O)C(NC(=O)[C@H](NC(=O)c3ccc(-c4ccc(NC(=O)[C@@H]5CCC(=O)N5C)cc4)[nH]c3=O)c3ccccc3)C2SC1 (some centres unmarked) | 12.5 |

---

MIC, Klebs. Pneum. MGH 2, per-entry values.
measure: MIC (µg/mL)

| compound | value.measured |
| --- | --- |
| CC(=O)OCC1=C(C(=O)O)N2C(=O)C(NC(=O)[C@H](NC(=O)c3ccc(-c4ccc(NC(=O)[C@@H]5CCC(=O)N5C)cc4)[nH]c3=O)c3ccccc3)C2SC1 (stereo partly drawn) | 6.3 |
| CC(=O)NC(C)(C)C(=O)Nc1ccc(-c2ccc(C(=O)N[C@@H](C(=O)NC3C(=O)N4C(C(=O)O)=C(COC(C)=O)CSC34)c3ccccc3)c(=O)[nH]2)cc1 (stereo partly drawn) | 12.5 |
| O=C(O)Cn1nnnc1SCC1=C(C(=O)O)N2C(=O)C(NC(=O)[C@H](NC(=O)c3ccc(-c4ccc(NC(=O)[C@@H]5CCC(=O)N5)cc4)[nH]c3=O)c3ccccc3)C2SC1 (stereo partly drawn) | 0.8 |

---

MIC, Entero Cloac. IM 11, per-entry values.

| compound | unit.string | MIC |
| --- | --- | --- |
| CC(=O)NCCCCC(NC(C)=O)C(=O)Nc1ccc(-c2ccc(C(=O)N[C@@H](C(=O)NC3C(=O)N4C(C(=O)O)=C(CSc5nnnn5C)CSC34)c3ccccc3)c(=O)[nH]2)cc1 (mixture of isomers) | µg/mL | 6.3 |
| CC(=O)N[C@H](C)C(=O)Nc1ccc(-c2ccc(C(=O)N[C@@H](C(=O)NC3C(=O)N4C(C(=O)O)=C(CSc5nnnn5C)CSC34)c3ccccc3)c(=O)[nH]2)cc1 (stereo partly shown) | µg/mL | 12.5 |
| CC(=O)N[C@@H](C)C(=O)Nc1ccc(-c2ccc(C(=O)N[C@@H](C(=O)NC3C(=O)N4C(C(=O)O)=C(CSc5nnnn5C)CSC34)c3ccccc3)c(=O)[nH]2)cc1 (stereo partly shown) | µg/mL | 6.3 |
| Cn1nnnc1SCC1=C(C(=O)O)N2C(=O)C(NC(=O)[C@H](NC(=O)c3ccc(-c4ccc(NC(=O)[C@@H]5CCC(=O)N5)cc4)[nH]c3=O)c3ccccc3)C2SC1 (stereo partly shown) | µg/mL | 3.1 |
